- Study System: Recombinant human PKC-theta (His-tagged 362-706) (Homo sapiens (Human), UniProt Q04759)
- Sequence (Q04759 362-706): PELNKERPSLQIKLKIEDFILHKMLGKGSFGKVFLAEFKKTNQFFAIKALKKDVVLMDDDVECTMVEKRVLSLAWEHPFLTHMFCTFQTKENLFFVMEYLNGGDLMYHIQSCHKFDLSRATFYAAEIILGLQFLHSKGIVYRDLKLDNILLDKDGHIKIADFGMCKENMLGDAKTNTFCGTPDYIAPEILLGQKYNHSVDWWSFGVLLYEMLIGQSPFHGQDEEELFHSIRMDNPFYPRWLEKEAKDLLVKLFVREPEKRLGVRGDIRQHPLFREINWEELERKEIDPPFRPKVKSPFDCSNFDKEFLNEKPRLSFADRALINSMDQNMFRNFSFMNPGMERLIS
- Assay Comment: PKC-theta inhibition assay (HTRF KinEASE kit)
- Assay type: biochemical
- Condition Context: ATP 6.5 μM, binned A to H, read-out: PKC-theta HTRF pIC50 (binned) (converted)
// values below are reported IC50

Notebook: CC1(C)C(=O)Nc2nccc(-c3nn([C@H]4CCNC4)c4c(F)cccc34)c21 , IC50 read as 10 to 31.6 nM

Notebook: CCC1(C)C(=O)Nc2nccc(-c3nn([C@H]4CCNC4)c4ccccc34)c21 (stereo partly shown) , IC50 read as 3.16 to 10 nM

Notebook: CC[C@]1(C)C(=O)Nc2nccc(-c3nn([C@H]4CCNC4)c4ccccc34)c21 (single isomer, unassigned) , IC50 read as 31.6 to 100 nM

Notebook: CO[C@@]1(C)C(=O)Nc2nccc(-c3nn(C4(CC#N)CCC4)c4ccccc34)c21 (single isomer, unassigned) , IC50 read as ≤ 1 nM

====

// values below are reported IC50
- Test system: IL-2 secretion by human effector memory T cells (TEM)
- Assay Comment: Effector memory T cells IL-2 release assay
- Type: cell-based
- Condition Context: T-cell; human CD4+ TEM cells, CD3/CD28 bead stimulation, 24 h; binned A to G; read-out: PKC-theta IL2 pIC50 (binned) (converted)

Notebook: CC[C@@]1(C)C(=O)Nc2nccc(-c3nn([C@H]4CCNC4)c4ccccc34)c21 (single isomer, unassigned) [Example 66] , IC50 read as 31.6 to 100 nM

====

// values below are reported PKC-theta HTRF pIC50
- Study System: Recombinant human PKC-theta (His-tagged 362-706) (Homo sapiens (Human), UniProt Q04759)
- Assay Comment: PKC-theta inhibition assay (HTRF KinEASE kit)
- Type: biochemical
- Condition Context: ATP 6.5 μM
Where a name gives a salt, the structure may show the parent alone.
Lab note: write the figure by itself, no unit.

Some solved entries appear below for comparison.
Notebook: CC1(C)C(=O)Nc2nccc(-c3nn(C4(CF)CCNC4)c4ccccc34)c21 (centres unmarked) , PKC-theta HTRF pIC50 read as 9.0

Notebook: CC1(C)C(=O)Nc2nccc(-c3nn([C@@H]4CCNC[C@@H]4F)c4ccccc34)c21 , PKC-theta HTRF pIC50 read as 8.6

Notebook: CC1(O)C(=O)Nc2nccc(-c3nn(C4(CC#N)CCC4)c4ccccc34)c21 (centres unmarked) , PKC-theta HTRF pIC50 read as 9.3

Notebook: CC1(O)C(=O)Nc2nccc(-c3nn([C@@H]4CC[C@@H](N)[C@H](F)C4)c4ccccc34)c21 (some centres unmarked) , PKC-theta HTRF pIC50 read as 9.7

Notebook: CC1(C)C(=O)Nc2nccc(-c3nn(C4CCNCC4)c4cc(F)ccc34)c21 , PKC-theta HTRF pIC50 read as 8.5

Notebook: CC1(C)C(=O)Nc2nccc(-c3nn(CC4CCNCC4)c4ccccc34)c21 , PKC-theta HTRF pIC50 read as 8.9

Notebook: CC1(C)C(=O)Nc2nccc(-c3nn([C@H]4CCNC4)c4cc(C(F)(F)F)ccc34)c21 , PKC-theta HTRF pIC50 read as 6.5

Notebook: CC1(C)C(=O)Nc2nccc(-c3ccn(C4CCNCC4)n3)c21 [Example 8, Dihydrochloride] , PKC-theta HTRF pIC50 read as 8.1

Notebook: CC1(C)C(=O)Nc2nccc(-c3nn(C[C@@]4(C)COCCN4)c4cc(F)ccc34)c21 , PKC-theta HTRF pIC50 read as 9.0

Notebook: CC1(C)C(=O)Nc2nccc(-c3nn(C4(CC#N)CCC4)c4ccccc34)c21 , PKC-theta HTRF pIC50 read as 8.0

Continuing:
Notebook: Cc1nn(C2CCNCC2)cc1-c1ccnc2[nH]c(=O)[nH]c12 , PKC-theta HTRF pIC50 read as 5.1

Notebook: CC1(C)C(=O)Nc2nccc(-c3nn([C@H]4CCNC4)c4c(F)cccc34)c21 , PKC-theta HTRF pIC50 read as 7.9

Notebook: CC1(C)C(=O)Nc2nccc(-c3cn(C4(CC#N)CCC4)c4ccccc34)c21 , PKC-theta HTRF pIC50 read as 7.3

Notebook: COCc1cc(-c2ccnc3[nH]c(=O)[nH]c23)cn1C1CCNCC1 , PKC-theta HTRF pIC50 read as 6.0

Notebook: COC1(C)C(=O)Nc2nccc(-c3nn(C4(CC#N)CCC4)c4ccccc34)c21 (centres unmarked) , PKC-theta HTRF pIC50 read as 8.9

Notebook: CC1(C)C(=O)Nc2nccc(-c3nn([C@H]4CCCNC4)c4ccccc34)c21 , PKC-theta HTRF pIC50 read as 7.8

Notebook: CC1(C)C(=O)Nc2nccc(-c3nn(C4CCNCC4)c4ccccc34)c21 , PKC-theta HTRF pIC50 read as 8.7

====

- System: IL-2 secretion by human effector memory T cells (TEM)
- Assay Comment: Effector memory T cells IL-2 release assay
- Format: cell-based
- Condition Context: T-cell; human CD4+ TEM cells, CD3/CD28 bead stimulation, 24 h; binned A to G; read-out: PKC-theta IL2 pIC50 (binned) (converted)
Property Name: IC50

So the reported IC50 for COC1(C)C(=O)Nc2nccc(-c3nn([C@@H]4CCNC[C@@H]4F)c4ccccc34)c21 (stereo partly drawn) , on IL-2 secretion by human effector memory T cells (TEM), turned out to be 31.6 to 100 nM

So the reported IC50 for CC[C@@]1(C)C(=O)Nc2nccc(-c3nn([C@@H]4CCNC[C@@H]4F)c4ccccc34)c21 (single isomer, unassigned) , on IL-2 secretion by human effector memory T cells (TEM), turned out to be 316 to 1000 nM

Next, consider the following molecule.
So the reported IC50 for CC[C@]1(C)C(=O)Nc2nccc(-c3nn([C@@H]4CCNC[C@@H]4F)c4cc(F)ccc34)c21 (single isomer, unassigned) , on IL-2 secretion by human effector memory T cells (TEM), turned out to be 316 to 1000 nM

====

// values below are reported IC50
- Study System: Recombinant human PKC-theta (His-tagged 362-706) (Homo sapiens (Human))
- Assay Comment: PKC-theta inhibition assay (HTRF KinEASE kit)
- Type: biochemical
- Condition Context: ATP 6.5 μM, read-out: PKC-theta HTRF pIC50 (converted)
The answer is to be given in nM; state only the numeric part.

So the reported IC50 for CC[C@]1(C)C(=O)Nc2nccc(-c3nn([C@H]4CCNC[C@H]4F)c4cc(F)ccc34)c21 (single isomer, unassigned) , on Recombinant human PKC-theta (His-tagged 362-706) (Homo sapiens (Human)), turned out to be 6.31

Continuing:
So the reported IC50 for C[C@@]1(O)C(=O)Nc2nccc(-c3nn(C4CCNCC4)c4cc(C(F)(F)F)ccc34)c21 (single isomer, unassigned) , on Recombinant human PKC-theta (His-tagged 362-706) (Homo sapiens (Human)), turned out to be 25.1

So the reported IC50 for CC[C@@]1(OC)C(=O)Nc2nccc(-c3nn(CC4(F)CCNCC4)c4ccccc34)c21 (single isomer, unassigned) , on Recombinant human PKC-theta (His-tagged 362-706) (Homo sapiens (Human)), turned out to be 3.98

====

// values below are reported IC50
- Test system: IL-2 secretion by human effector memory T cells (TEM)
- Assay Comment: Effector memory T cells IL-2 release assay
- Type: cell-based
- Condition Context: T-cell; human CD4+ TEM cells, CD3/CD28 bead stimulation, 24 h; binned A to G; read-out: PKC-theta IL2 pIC50 (binned) (converted)

Some solved entries appear below for comparison.
Notebook: CNC1(C)C(=O)Nc2nccc(-c3nn(C4(CC#N)CCC4)c4ccccc34)c21 (stereo not drawn) , IC50 read as 1 to 3.16 nM

Notebook: CC1(C)C(=O)Nc2nccc(-c3nn(CC4(F)CCNC4)c4ccccc34)c21 (stereo not drawn) , IC50 read as 10 to 31.6 nM

Notebook: CO[C@@]1(C)C(=O)Nc2nccc(-c3nn([C@@H]4CCNC[C@@H]4F)c4ccccc34)c21 (single isomer, unassigned) , IC50 read as 100 to 316 nM

Notebook: CO[C@]1(C)C(=O)Nc2nccc(-c3nn([C@@H]4CCNC[C@@H]4F)c4ccccc34)c21 (single isomer, unassigned) , IC50 read as 10 to 31.6 nM

Notebook: CO[C@@]1(C)C(=O)Nc2nccc(-c3nn([C@H]4CCNC[C@H]4F)c4ccccc34)c21 (single isomer, unassigned) , IC50 read as 31.6 to 100 nM

Continuing:
Notebook: C[C@@]1(O)C(=O)Nc2nccc(-c3nn(C4(CC#N)COC4)c4ccccc34)c21 (single isomer, unassigned) , IC50 read as 316 to 1000 nM

Notebook: CC1(C)C(=O)Nc2nccc(-c3nn(C4CCNCC4)c4ccccc34)c21 , IC50 read as 31.6 to 100 nM

Notebook: CC1(C)C(=O)Nc2nccc(-c3nn(C[C@]4(C)COCCN4)c4cc(F)ccc34)c21 , IC50 read as > 1000 nM

Notebook: CCC1(O)C(=O)Nc2nccc(-c3nn([C@@H]4CCNC[C@@H]4F)c4ccccc34)c21 (stereo partly drawn) , IC50 read as 31.6 to 100 nM
